The reported numbers originate from the supplement of paper PMC10567573.

B1: MED27 (parent)
chain: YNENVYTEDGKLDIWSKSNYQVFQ

Variants of: B1
Test: protein stability index of a GFP-peptide fusion (GPS, HEK-293T) (PSI 1-6); higher = more stable;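 also: lentivirally expressed fusions sorted by FACS into six bins by GFP to DsRed ratio, PSI derived from sequencing read proportions per bin multiplied by bin number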
Conditions: c terminus: a fixed tail appended
Please mark TRUE if the recorded protein stability index is equal to or greater than 2, and FALSE if it falls below.

// query For this variant, is measured protein stability index 2 or higher? YNENVYTEDGKTDIWSKSNYQVFQ [L12T]
// result TRUE

More entries:
// query Check this variant for protein stability index at or above 2: YNENVYTEDGKLDIWSKSNCQVFQ [Y20C]
// result TRUE

// query Is reported protein stability index greater than or equal to 2 here: YNENVYTEDGKLDIWSKVNYQVFQ [S18V]
// result TRUE

// query Could you verify whether the entry YNENVYTEDGKLDIWSKSNYQDFQ [V22D] shows protein stability index of no less than 2?
// result TRUE

// query // inclusive: protein stability index at least 2? input: YNENVYTEDGKLDIWSHSNYQVFQ [K17H]
// result TRUE

// query Check this variant for protein stability index at or above 2: YNENNYTEDGKLDIWSKSNYQVFQ [V5N]
// result TRUE

// query Decide: is the reported value of protein stability index for YNENVYTEDPKLDIWSKSNYQVFQ [G10P] equal to or greater than 2?
// result TRUE

// query Decide: is the reported value of protein stability index for YNENVYTEIGKLDIWSKSNYQVFQ [D9I] equal to or greater than 2?
// result FALSE

// query Reported protein stability index reaches at least 2 for YNENPYTEDGKLDIWSKSNYQVFQ [V5P] ?
// result TRUE

// query Hi, just wondering whether YNENVYTEDGKLDIWVKSNYQVFQ [S16V] shows protein stability index of 2 or higher.
// result TRUE
